Assay: ATG_NRF2_ARE_CIS: Attagene CIS-FACTORIAL HepG2 Assay for human Nuclear Factor Erythroid 2 Related Factor 2 (NFR2) response to Antioxidant Response Elements (ARE) (AID 2282992)
Details: HepG2 Attagene ARE/NRF2 reporter, transcription factor activity; actives raise or lower the signal
Description: ATG_CIS is a cell-based, multiplexed-readout assay that uses HepG2, a human liver cell line, with measurements taken at 24 hours after chemical dosing in a 24-well plate.ATG_NRF2_ARE_CIS is one of 52 assay component(s) measured or calculated from the ATG_CIS assay. […] This assay endpoint, ATG_NRF2_ARE_CIS, was analyzed with bidirectional fitting relative to DMSO as the negative control and baseline of activity. […]
Active and inactive are the calls of the source. How the source made its calls: active means hit-call score of the fitted dose curve at least 0.9, where 1 is the maximum; inactive means score below 0.9.
Possible outcomes: active, inactive

| molecule | assigned_label |
| --- | --- |
| Cc1c(C)c([N+](=O)[O-])c(C(C)(C)C)c([N+](=O)[O-])c1C | inactive |
| CCOC(=O)Cc1cccc2ccccc12 | inactive |
| Cc1cccc(N)n1 | inactive |
| CC=CC(=O)N(CC)c1ccccc1C | inactive |
| Cc1cc(C)c(C)cc1C | inactive |
| COc1ccc2nc(N)sc2c1 | active |
| O=C(O)C(c1ccc(Cl)cc1)c1ccc(Cl)cc1 | inactive |
| CCCCCCCCCCCSCC(=O)O | inactive |
| CCC(C)(C)C1CCCCC1OC(C)=O (stereo not given) | active |
| Cc1cc(C)c(C(=O)O)c(C)c1 | inactive |
| CC(C)(C)c1ccc(N)cc1 | inactive |
| Nc1ccc(-c2ccc(F)cc2)cc1 | inactive |
| Nc1ccc(N=Nc2ccccc2)c(N)n1 | active |
| CC=C1CC2C=CC1C2 (stereo not given) | active |
| O=C1Nc2ccccc2C1(c1ccc(O)cc1)c1ccc(O)cc1 | active |

---

experiment: ATG_M_19_CIS: Attagene CIS-FACTORIAL HepG2 Assay for M19 Transcription Factor (Internal Marker) (AID 2282939); settings: HepG2 Attagene CIS-FACTORIAL M19 internal marker reporter; actives raise or lower the signal
Calls of active or inactive are those of the source. How the source made its calls: active means hit-call score of the fitted dose curve at least 0.9, where 1 is the maximum; inactive means score below 0.9.

| compound | outcome |
| --- | --- |
| CC(=O)Oc1ccc(C)cc1 | inactive |
| CCCc1ccc(OC)cc1 | inactive |
| CCCCCCOC(=O)C(C)CC (centres undefined) | inactive |
| C=C[C@](C)(O)CC[C@@H]1[C@@]2(C)CCCC(C)(C)[C@@H]2CC[C@@]1(C)O | inactive |
| C[C@]12CCC(=O)C=C1CC[C@@H]1[C@@H]2C(=O)C[C@@]2(C)[C@H]1CC[C@]2(O)C(=O)CO | inactive |
| CCCCOCCOC(=O)COc1nc(Cl)c(Cl)cc1Cl | inactive |
| C=C1[C@H]2CC[C@@H]3[C@H]2C(C)(C)CCC[C@]13C | inactive |
| CC(C)=CCC[C@H](C)CCO | inactive |
| CCCCCCCCC(=O)OCC | inactive |
| CCC(C)OC(=O)c1ccc(O)cc1 (centres undefined) | inactive |
| C(=CC=Nc1ccccc1)C=CNc1ccccc1 | inactive |
| CCCC(C)CCC(C)=O (centres undefined) | inactive |
| O=C(/C=C/C=C/c1ccc2c(c1)OCO2)N1CCCCC1 | inactive |
| Nc1nc2ccccc2[nH]1 | inactive |
| CC=CC(F)(F)C(F)(F)C(F)(F)F | inactive |
| O=C1c2cccc(O)c2C(=O)c2c(O)cc(CO)cc21 | inactive |
| COC(F)(F)C(F)(C(F)(F)F)C(F)(F)F | inactive |
| O=Cc1ccc(CO)o1 | inactive |
| C[Si](C)(C)O[Si](O)(O)O | inactive |
| C=CCOCC(O)CCl (centres undefined) | inactive |
| CCOC(=O)N1CCC(=C2c3ccc(Cl)cc3CCc3cccnc32)CC1 | inactive |
| C/C=C\C/C=C/CCCCCCCCOC(C)=O | inactive |
| O=C(O)c1cc(Cl)cc([N+](=O)[O-])c1Cl | inactive |
| C=CC(C)(C)C | inactive |
| CC1OC1C1CCC2(C)OC2C1 (centres undefined) | inactive |
| CCCCCCCCCCOC(C)=O | inactive |
| CC(C)(C)C(=O)CCc1ccc(Cl)cc1 | inactive |
| O=C(Nc1cccc(C(F)(F)F)c1)c1cc(Br)cc(Br)c1O | inactive |
| CCOC(=O)CC(C(C)=O)C(C)=O | inactive |

---

Experiment: TOX21_p53_BLA_p2_viability: Viability Assessment in the Tox21 HCT-116 p53 Agonism Beta-lactamase Assay, Phase 2 (AID 2283591);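 further: compound exposure lasted 16 h at 37 °C; actives lower the ATP signal meaning cytotoxicity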
Excerpt: TOX21_p53_BLA_p2 is a cell-based, single-readout assay that uses HCT116, a human intestinal cell line, […] in a 1536-well plate.TOX21_p53_BLA_p2_viability is an assay readout measuring cellular ATP content and detected with CellTiter-Glo Luciferase-coupled ATP quantitation.TOX21_p53_BLA_p2_viability used a type of viability reporter where loss-of-signal activity can be used to understand changes in the cell viability. […]
Results filed as inconclusive are left out. Active and inactive are the calls of the source. Rule for the calls: active = hit-call score of the fitted dose curve at least 0.9, where 1 is the maximum; inconclusive = response in the unintended direction; inactive = score below 0.9.
Possible outcomes: yes for active, no for inactive

| molecule | assigned_label |
| --- | --- |
| Cc1cccc(N)n1 | no |
| CCOC(=O)NNc1nncc2ccccc12 | no |
| O=c1c2ccccc2nnn1CCl | no |
| SCCc1cnccn1 | no |
| O=c1[nH]c(=O)c2[nH]c(=O)[nH]c2[nH]1 | no |
| Cc1cc(=O)n(-c2ccccc2)n1C | no |
| CC1=NC(C)OC1C (stereo not given) | no |
| CCCCCCCCCCOS(=O)(=O)O | no |
| O=C1CCCN1CCO | no |
| Cn1c([N+](=O)[O-])cnc1COC(N)=O | no |
| CC(C)=CCCC(C)C=O (stereo not given) | no |
| C/C=C\C/C=C/CCCCCCCCOC(C)=O | no |
| C=CCOc1c(Br)cc(Br)cc1Br | no |
| CC(C)C1=CC2=CC[C@@H]3[C@](C)(CCC[C@@]3(C)C(=O)O)[C@H]2CC1 | yes |
| COc1ccc(C(Cl)=C(c2ccc(OC)cc2)c2ccc(OC)cc2)cc1 | no |

---

target: X-box-binding protein 1 (Homo sapiens); assay: ATG_Xbp1_CIS: Attagene CIS-FACTORIAL HepG2 Assay for human X-box Binding Protein 1 (XBP1) (AID 2282972); settings: HepG2 XBP1 cis-element reporter, Attagene multiplex; actives raise or lower the signal
Calls of active or inactive are those of the source. Rule for the calls: active = hit-call score of the fitted dose curve at least 0.9, where 1 is the maximum; inactive = score below 0.9.
Possible outcomes: active, inactive

| compound | assigned_label |
| --- | --- |
| O=C1C=CC(=O)O1 | inactive |
| CC(C)(c1cc(Br)c(OCCO)c(Br)c1)c1cc(Br)c(OCCO)c(Br)c1 | active |
| CCOc1ccc(N)c([N+](=O)[O-])c1 | inactive |
| CCCCCCCCCCCSCC(=O)O | active |
| Cc1cc(C)c(C(=O)O)c(C)c1 | inactive |
| COCc1c(C(C)C)nc(C(C)C)c(/C=C/[C@@H](O)C[C@@H](O)CC(=O)O)c1-c1ccc(F)cc1 | inactive |
| CC1=CC[C@H](C(C)C)C=C1 | inactive |
| Nc1ccc2cc3ccccc3cc2c1 | inactive |
| SCCc1cnccn1 | inactive |
| CC1(C)[C@H]2CC[C@]1(C)C(=O)C2 | inactive |
| C=C1C2CCC(C2)C1(C)C (centres undefined) | inactive |
| CCC(CO)CO | inactive |
| Cc1cc(C)c(C)c(C)c1 | inactive |
| CC(C)=CCC[C@H](C)CCO | inactive |

---

read-out: Human Leukocyte Antigen - DR isotype (HLADR), HLA-DRA (gene 3122); assay: BSK_3C_HLADR: BioMAP Diversity Plus: 3C Assay for Human Leukocyte Antigen - DR isotype (HLADR) Biomarker Activity (AID 2283019); conditions: primary human endothelial cells (HUVEC); actives raise or lower the signal
Calls of active or inactive are those of the source. The calls were made as follows: active = hit-call score of the fitted dose curve at least 0.9, where 1 is the maximum; inactive = score below 0.9.
Possible outcomes: yes (active), no (inactive)

| molecule | assigned_label |
| --- | --- |
| O=C1CCCN1CCO | no |
| CC1OC1C1CCC2(C)OC2C1 (centres undefined) | no |
| CCCCC/C=C\C/C=C\CCCCCCCC(=O)OC | yes |
| S=C(NC1CCCCC1)NC1CCCCC1 | no |
| CO[Si](OC)(OC)c1ccccc1 | no |
| c1ccc(-c2ccccn2)nc1 | no |
| c1ccc2c(c1)ccc1ncccc12 | yes |
| CN1C(=O)N(C)C(O)C1O (centres undefined) | no |
| O=Nc1ccc(O)cc1 | no |

---

test: ATG_GLI_CIS: Attagene CIS-FACTORIAL HepG2 Assay for human Zinc Finger Protein GLI1 (AID 2282945); details: HepG2, Attagene cis-factorial reporter mRNA, GLI element; actives raise or lower the signal
Activity calls are given as the source filed them. The calls were made as follows: active = hit-call score of the fitted dose curve at least 0.9, where 1 is the maximum; inactive = score below 0.9.
Possible outcomes: active, inactive

| compound | assigned_label |
| --- | --- |
| COc1c2ccoc2cc2oc(=O)ccc12 | inactive |
| CCCCCCC(O)CO (configuration not stated) | inactive |
| c1ccc2c(c1)ccc1cc3c(ccc4ccccc43)cc12 | inactive |
| COC(=O)C1=C(C)NC(C)=C(C(=O)OCC(C)C)C1c1ccccc1[N+](=O)[O-] (configuration not stated) | inactive |
| C[C@]12CCC(=O)C=C1CC[C@@H]1[C@@H]2C(=O)C[C@@]2(C)[C@H]1CC[C@]2(O)C(=O)CO | inactive |
| Cc1cc(C)c(C)c(C)c1 | inactive |
| CCCOC(=O)CCCCC(=O)OCCC | inactive |
| Nc1cccc(C(F)(F)F)c1 | inactive |
| Nc1ccc2cc3ccccc3cc2c1 | inactive |
| CCCCCCOC(=O)C(C)CC (configuration not stated) | inactive |
| O=c1[nH]nc(-c2ccc([N+](=O)[O-])o2)o1 | inactive |
| C=CC(=O)OCC(Br)CBr (configuration not stated) | inactive |
| CC(C)CCCCCOC(=O)CCS | inactive |
| CC(C)=CCC/C(C)=C\C#N | inactive |
| CC=C1CC2C=CC1C2 (configuration not stated) | inactive |
| O=[N+]([O-])c1ccc(CO)cc1 | inactive |
| [Cl][In]([Cl])[Cl] | inactive |
| CC/C=C\CCOC(=O)CCCCC | inactive |
| CCC(Cc1ccccc1)(C(=O)c1ccc(N2CCOCC2)cc1)N(C)C (configuration not stated) | inactive |
| CC(C)C(=O)C(C)C | inactive |
| Nc1ccc(Cl)cc1Cl | inactive |
| CC(C)CCCC(C)CC=O (configuration not stated) | inactive |
| COC(=O)c1cc(Cl)ccc1[N+](=O)[O-] | inactive |
| C=C(C)CCO | inactive |
| C=C(C)C(=O)OCC(C)C | inactive |
| CCN(CCC#N)c1ccc(N=Nc2c(Cl)cc([N+](=O)[O-])cc2Cl)cc1 | inactive |
| CC1(C)O[C@@H]2C[C@H]3[C@@H]4C[C@H](F)C5=CC(=O)C=C[C@]5(C)[C@@]4(F)[C@@H](O)C[C@]3(C)[C@]2(C(=O)CO)O1 | inactive |
| Nc1ccc(N)c(Cl)c1 | inactive |
| C=COCCCC | inactive |
| Cc1cccc(OCCOc2cccc(C)c2)c1 | inactive |
| O=C(C(Cl)Cl)N1CCOC12CCCCC2 | inactive |
| CC=CC(=O)N(CC)c1ccccc1C | inactive |
| O=Cc1ccc(CO)o1 | inactive |
| C=C[Si](C)(C)O[Si](C)(C)C=C | inactive |
| CCOc1ccc(N)c([N+](=O)[O-])c1 | inactive |
| CC(=O)NS(=O)(=O)c1ccc(N)cc1 | inactive |
| C=CCOCC(O)CCl (configuration not stated) | inactive |
| Cc1oncc1C(=O)Nc1ccc(C(F)(F)F)cc1 | inactive |
| c1cc(N(CC2CO2)CC2CO2)ccc1OCC1CO1 (configuration not stated) | active |
| COCc1c(C(C)C)nc(C(C)C)c(/C=C/[C@@H](O)C[C@@H](O)CC(=O)O)c1-c1ccc(F)cc1 | inactive |
| O=C(Oc1ccccc1)c1ccc2ccccc2c1O | inactive |
| N=c1ccn2c(n1)O[C@H]1[C@H](O)[C@@H](CO)O[C@H]12 | inactive |
| Cc1cc(C)c(C)cc1C | inactive |
| c1ccc2c(c1)ccc1ncccc12 | inactive |
| CCOC(=O)NNc1nncc2ccccc12 | inactive |
| CC(=O)[C@H]1[C@H](C#N)C[C@H]2[C@@H]3CC=C4C[C@@H](O)CC[C@]4(C)[C@H]3CC[C@@]21C | inactive |
| O=C1C=CC(=O)O1 | inactive |
| CCCCCCCC/C=C\CCCCCCCC(=O)O | inactive |
| CC(=O)Oc1ccc(C)cc1 | inactive |
| O=C1Nc2ccccc2C1(c1ccc(O)cc1)c1ccc(O)cc1 | active |
| S=C(NC1CCCCC1)NC1CCCCC1 | inactive |
| O=S(=O)(O)c1ccc2cc(O)c(S(=O)(=O)O)cc2c1 | inactive |
| CNC(=S)NN | inactive |
| O=S(=O)(Oc1ccc(Cl)cc1Cl)c1ccccc1 | inactive |
| O=c1cc[nH]c(=S)[nH]1 | inactive |
| CCC(C)C=O (configuration not stated) | inactive |
| O=C1c2ccccc2C(=O)C1c1nc2ccccc2c(Br)c1O | inactive |
